Biological target: Dual specificity calcium/calmodulin-dependent 3',5'-cyclic nucleotide phosphodiesterase 1B (Homo sapiens, UniProt Q01064)
Sequence (Q01064 whole entry): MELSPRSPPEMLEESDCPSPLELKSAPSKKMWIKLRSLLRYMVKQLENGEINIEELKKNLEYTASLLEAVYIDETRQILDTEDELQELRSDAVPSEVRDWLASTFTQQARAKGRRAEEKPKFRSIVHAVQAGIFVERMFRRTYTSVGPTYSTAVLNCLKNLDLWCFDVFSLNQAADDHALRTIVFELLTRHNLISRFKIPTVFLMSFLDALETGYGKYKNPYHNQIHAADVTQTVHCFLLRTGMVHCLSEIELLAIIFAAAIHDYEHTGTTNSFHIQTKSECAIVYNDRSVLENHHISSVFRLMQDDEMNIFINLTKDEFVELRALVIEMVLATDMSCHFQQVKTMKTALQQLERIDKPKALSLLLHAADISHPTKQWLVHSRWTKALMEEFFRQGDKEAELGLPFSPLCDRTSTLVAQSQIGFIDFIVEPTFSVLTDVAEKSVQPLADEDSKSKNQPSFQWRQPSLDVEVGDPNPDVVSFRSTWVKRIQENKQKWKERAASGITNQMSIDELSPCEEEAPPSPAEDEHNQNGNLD
Test: Phosphodiesterase (PDE) Inhibition Assay
Details: pH 7.5; 30 °C
Please go through the items and note down their pIC50.
Give bare numbers, as −log10 of the molar value.

Look over these answered cases.
I would be grateful if you could share the reported pIC50 for `COc1ccc(C(C)=NOC(N)=O)cc1OC1CCCC1` .
3.72

Also, `CN1CC(=O)N2[C@H](c3ccc4c(c3)OCO4)c3[nH]c4ccccc4c3C[C@@H]2C1=O` please.
4.30

Also, `COc1ccc(C(=O)Nc2c(Cl)cncc2Cl)cc1OC1CCCC1` please.
4.17

Proceed to the following item.
I would be grateful if you could share the reported pIC50 for COc1ccc(C2(C#N)CCC(C(=O)O)CC2)cc1OC1CCCC1 (stereo not drawn) .
4.06

###

Molecular target: Isoform 4 of Dual 3',5'-cyclic-AMP and -GMP phosphodiesterase 11A (PDE11A1) 35-489] (Homo sapiens)
Sequence (Q9HCR9 whole entry): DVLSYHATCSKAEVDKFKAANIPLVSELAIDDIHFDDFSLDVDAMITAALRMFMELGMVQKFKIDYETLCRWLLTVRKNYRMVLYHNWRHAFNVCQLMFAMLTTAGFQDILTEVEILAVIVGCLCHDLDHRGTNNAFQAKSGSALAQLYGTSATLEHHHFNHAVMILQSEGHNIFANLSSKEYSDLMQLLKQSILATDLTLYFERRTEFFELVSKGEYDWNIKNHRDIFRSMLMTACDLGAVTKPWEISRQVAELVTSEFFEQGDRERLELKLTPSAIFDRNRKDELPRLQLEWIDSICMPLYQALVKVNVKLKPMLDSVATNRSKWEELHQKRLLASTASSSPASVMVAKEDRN
Experiment: Phosphodiesterase (PDE) Inhibition Assay
pIC50: −log10 of the molar value.
Rule: pIC50 under 5 gives Not fulfilled, otherwise Fulfilled.

Answered examples (6):
pIC50 >= 5 for `COc1ccc(C(C)=NOC(N)=O)cc1OC1CCCC1` ?
Not fulfilled

Also, `CCCc1nc(C)c2c(=O)[nH]c(-c3cc(S(=O)(=O)N4CCN(CC)CC4)ccc3OCC)nn12` please.
Fulfilled

Also, COc1ccc(C2(C#N)CCC(C(=O)O)CC2)cc1OC1CCCC1 (stereo not drawn) please.
Not fulfilled

Also, COc1ccc([C@@H]2CNC(=O)C2)cc1OC1CCCC1 (racemic) please.
Not fulfilled

Also, `COc1ccc(C(=O)Nc2c(Cl)cncc2Cl)cc1OC1CCCC1` please.
Fulfilled

Also, `COc1cc(-c2ccc(=O)[nH]n2)ccc1OC(F)F` please.
Not fulfilled

---
pIC50 >= 5 for `O=C(Nc1c(Cl)cncc1Cl)c1ccc(OC(F)F)c(OCC2CC2)c1` ?
Not fulfilled

Also, CCCOc1cc(C2(C)CNC(=O)O2)ccc1OC (racemic) please.
Not fulfilled

###

Please go through the items and note down their IC50.
Biological target: cGMP-dependent 3',5'-cyclic phosphodiesterase [574-941] (Homo sapiens)
Construct: 574-941
Sequence (O00408 574-941): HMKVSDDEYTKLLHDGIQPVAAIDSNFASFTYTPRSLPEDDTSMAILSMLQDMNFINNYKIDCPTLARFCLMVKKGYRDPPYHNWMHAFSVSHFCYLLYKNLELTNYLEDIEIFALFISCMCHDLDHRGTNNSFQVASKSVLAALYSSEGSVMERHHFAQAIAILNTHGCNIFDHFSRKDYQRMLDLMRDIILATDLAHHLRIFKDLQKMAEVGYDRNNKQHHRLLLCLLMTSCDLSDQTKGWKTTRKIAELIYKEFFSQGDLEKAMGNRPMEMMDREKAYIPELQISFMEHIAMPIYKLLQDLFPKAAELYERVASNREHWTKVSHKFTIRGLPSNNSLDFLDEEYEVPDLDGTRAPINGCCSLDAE
Experiment: Phosphodiesterase (PDE) Inhibition Assay
Details: pH 7.5; 30 °C

Look over these answered cases.
I would be grateful if you could share the reported IC50 for COc1ccc([C@@H]2CNC(=O)C2)cc1OC1CCCC1 (racemic) .
> 200 µM

Also, CCCOc1cc(C2(C)CNC(=O)O2)ccc1OC (racemic) please.
> 200 µM

Also, `COc1cc(-c2ccc(=O)[nH]n2)ccc1OC(F)F` please.
> 200 µM

Also, `COc1ccc(C(C)=NOC(N)=O)cc1OC1CCCC1` please.
89 µM

---
I would be grateful if you could share the reported IC50 for COc1ccc(C2(C#N)CCC(C(=O)O)CC2)cc1OC1CCCC1 (stereo not given) .
160 µM
